- measured-target: delF508-CFTR-HRP (Homo sapiens, UniProt P13569, DEL508-508)
- Construct: expressed in transfected cells
- Sequence (P13569 with tags, fused parts or gaps DEL508-508): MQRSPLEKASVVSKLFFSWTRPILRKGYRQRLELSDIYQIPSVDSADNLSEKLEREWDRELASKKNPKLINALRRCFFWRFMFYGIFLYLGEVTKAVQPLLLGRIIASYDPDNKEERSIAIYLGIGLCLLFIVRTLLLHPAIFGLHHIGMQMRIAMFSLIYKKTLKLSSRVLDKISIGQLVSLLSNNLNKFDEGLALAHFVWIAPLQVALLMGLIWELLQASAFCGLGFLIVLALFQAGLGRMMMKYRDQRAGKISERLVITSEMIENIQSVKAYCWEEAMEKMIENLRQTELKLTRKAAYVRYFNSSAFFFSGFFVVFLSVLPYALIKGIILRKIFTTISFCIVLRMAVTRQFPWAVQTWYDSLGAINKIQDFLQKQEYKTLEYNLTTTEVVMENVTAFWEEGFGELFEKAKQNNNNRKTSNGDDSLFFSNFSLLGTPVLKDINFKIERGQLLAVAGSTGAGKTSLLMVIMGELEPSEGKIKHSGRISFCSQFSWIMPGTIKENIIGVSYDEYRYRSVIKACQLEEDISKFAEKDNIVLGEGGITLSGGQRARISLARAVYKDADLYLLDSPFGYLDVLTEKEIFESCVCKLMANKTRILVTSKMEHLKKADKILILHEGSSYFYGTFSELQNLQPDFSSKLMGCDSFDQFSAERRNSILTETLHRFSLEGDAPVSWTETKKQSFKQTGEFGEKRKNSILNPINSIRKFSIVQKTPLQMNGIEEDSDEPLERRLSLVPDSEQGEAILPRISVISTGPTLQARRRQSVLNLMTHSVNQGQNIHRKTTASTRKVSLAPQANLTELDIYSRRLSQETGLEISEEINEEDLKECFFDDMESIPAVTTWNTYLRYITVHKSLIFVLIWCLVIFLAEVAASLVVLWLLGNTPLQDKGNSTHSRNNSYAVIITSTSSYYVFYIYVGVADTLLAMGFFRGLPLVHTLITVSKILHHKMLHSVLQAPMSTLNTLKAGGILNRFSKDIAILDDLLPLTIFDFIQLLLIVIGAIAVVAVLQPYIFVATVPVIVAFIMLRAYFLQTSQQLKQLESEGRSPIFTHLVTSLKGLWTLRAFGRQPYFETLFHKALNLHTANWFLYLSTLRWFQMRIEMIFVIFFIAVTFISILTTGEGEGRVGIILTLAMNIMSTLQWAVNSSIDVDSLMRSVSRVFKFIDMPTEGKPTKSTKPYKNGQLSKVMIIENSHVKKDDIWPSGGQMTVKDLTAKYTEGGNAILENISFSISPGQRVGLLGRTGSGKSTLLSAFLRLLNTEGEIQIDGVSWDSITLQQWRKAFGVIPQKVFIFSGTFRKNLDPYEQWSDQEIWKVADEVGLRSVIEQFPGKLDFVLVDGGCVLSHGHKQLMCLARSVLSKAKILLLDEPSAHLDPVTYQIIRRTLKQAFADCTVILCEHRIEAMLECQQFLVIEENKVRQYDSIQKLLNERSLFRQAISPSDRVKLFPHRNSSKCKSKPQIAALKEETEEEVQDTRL
- method-summary: Measurement of delF508-CFTR-HRP surface expression in CFBE41o- cells (HRP luminescence)
- Type: cell-based
- experimental-conditions: mean of at least two replicates
observed-property: EC50 (nM)

1. CC1(O)CCN(c2cccc(S(=O)(=O)NC(=O)C3(Oc4cc(Cl)ccc4C4CC5(CCC5)C4)CC3)n2)CC1
1090
2. C[C@@H]1CN(c2cccc(S(=O)(=O)NC(=O)C3(Oc4cc(Cl)ccc4C4CC5(CCC5)C4)CC3)n2)CCO1
1290
3. Cc1ccc(C2CCCCC2)c(OC2(C(=O)NS(=O)(=O)c3cccc(N4CC5(CN(C(=O)OC(C)(C)C)C5)C4)n3)CC2)c1
870

A = CC1(C)CCN(c2ccc(Cl)cc2OC2(C(=O)NS(=O)(=O)c3cccc(N4CCC(O)(c5cccc(C(F)(F)F)c5)CC4)n3)CC2)CC1
B = Cc1ccc(C2CCCCC2)c(OC2(C(=O)NS(=O)(=O)c3cccc(N4CCN(C(=O)OC(C)(C)C)CC4)n3)CC2)c1
C = Cc1ccc(C2CCC(F)(F)CC2)c(OC2(C(=O)NS(=O)(=O)c3cccc(NC[C@@H](C)O)n3)CC2)c1
D = O=C(NS(=O)(=O)c1cccc(N2CC[C@H](O)C2)n1)C1(Oc2cc(Cl)ccc2NC2CCC(C(F)(F)F)CC2)CC1 (stereo partly shown)
*Q* Rank ascending by EC50. Would you mind listing the labels in the order asked for?
*A* A, B, D, C

FYI, the data here is from patent US20220033407A1.
